system: Burkholderia mallei; test: microbe, parasite or virus in culture; assay type: cell-based; conditions: read-out: MIC range
Each entry below carries its recorded MIC.

C[C@H](N)CCCc1cc(Cl)c(F)c(-c2cc3cn(-c4ccc([C@@H]5CCC[C@@H](CCSC(=N)N)N5)cc4)c(=O)nc3[nH]2)c1 [RX-D4]    0.03 to 0.12 µg/mL

get_value(item= CC(=N)NCC[C@@H]1CCC[C@@H](c2ccc(-n3cc4cc(-c5cc(CCC[C@H](C)N)cc(Cl)c5F)[nH]c4nc3=O)cc2)N1CCCO [RX-D2] , readout=MIC) returns 0.06 to 0.5 µg/mL

get_value(item= CC[C@H]1OC(=O)[C@H](C)[C@@H](O[C@H]2C[C@@](C)(OC)[C@@H](O)[C@H](C)O2)[C@H](C)[C@@H](O[C@@H]2O[C@H](C)C[C@H](N(C)C)[C@H]2O)[C@](C)(O)C[C@@H](C)CN(C)[C@H](C)[C@@H](O)[C@]1(C)O [Azithromycin, azithromycin, reference compound] , readout=MIC) returns 0.06 to 1 µg/mL

get_value(item= CC(=N)NCC[C@@H]1CCC[C@@H](c2ccc(-n3cc4cc(-c5cc(CCC[C@H](C)N)cc(Cl)c5F)[nH]c4nc3=O)cc2)N1CCCF [RX-D3] , readout=MIC) returns 0.03 to 0.25 µg/mL
